meta.source: patent US10457707B2

- Tested on: Streptococcus pyogenes, ATCC 700294
- experiment.notes: Minimal inhibitory concentration assay (microbroth dilution)
- Format: cell-based
- study.conditions: Streptococcus pyogenes, ATCC700294; read-out: Minimal Inhibitory Concentrations S. pyogenes ATCC 700294
*1 amine or outer side, *2 acyl side, *3 side chain or, on linkers, in order; H or OH if unused. Where a SMILES comes first, the peptide text is derived from it. Bridges are numbered along the chain shown (N, C = ends). [ ]: non-standard residue; d: D form. The star is where a group is joined. ξ: configuration not given here. Phe(3,5-F2) = N[C@@H](Cc1cc(F)cc(F)c1)C(=O)O; NH(4-OCF3-phenyl) = FC(F)(F)Oc1ccc(N*)cc1; ξPro(4S-Me) = C[C@@H]1CNC(C(=O)O)C1; NH(4-Et-phenyl) = CCc1ccc(N*)cc1; aThr = C[C@H](O)[C@H](N)C(=O)O; NMeA = CN[C@@H](C)C(=O)O; CO = O=C([*:1])[*:2]; ξP = O=C(O)C1CCCN1

molecule	unit.name	MIC
C[C@H]1CC2C(=O)O[C@@H](C)[C@H](NC(=O)[C@H](Cc3cc(F)cc(F)c3)NC(=O)Nc3ccc(OC(F)(F)F)cc3)C(=O)N3CCCC3C(=O)N(C)[C@@H](C)C(=O)N[C@@H](C)C(=O)N2C1 (stereo partly drawn) [Compound 28] ({NH(4-OCF3-phenyl)-CO}-[Phe(3,5-F2)][aThr][ξP][NMeA]A[ξPro(4S-Me)]; ester 2-C)	µM	0.23
CCc1ccc(NC(=O)N[C@@H](Cc2cc(F)cc(F)c2)C(=O)N[C@@H]2C(=O)N3CCCC3C(=O)N(C)[C@@H](C)C(=O)N[C@@H](C)C(=O)N3C[C@@H](C)CC3C(=O)O[C@H]2C)cc1 (stereo partly drawn) [Compound 30] ({NH(4-Et-phenyl)-CO}-[Phe(3,5-F2)][aThr][ξP][NMeA]A[ξPro(4S-Me)]; ester 2-C)	µM	0.03
C[C@H]1CC2C(=O)OC[C@H](NC(=O)[C@H](Cc3cc(F)cc(F)c3)NC(=O)Nc3ccc4c(c3)OCO4)C(=O)N3CCCC3C(=O)N3CCCCC3C(=O)N[C@@H](C)C(=O)N2C1 (stereo partly shown) [Compound 46]	µM	0.8
CCc1cccc(NC(=O)N[C@@H](Cc2ccccc2)C(=O)N[C@H]2COC(=O)[C@@H]3C[C@@H](C)CN3C(=O)[C@H](C)NC(=O)[C@@H]3CCCCN3C(=O)[C@@H]3CCCN3C2=O)c1 [Compound 10]	µM	0.6

###

- System: Streptococcus pyogenes, ATCC 700294
- experiment.notes: Minimal inhibitory concentration assay (microbroth dilution)
- Assay type: cell-based
- study.conditions: Streptococcus pyogenes, ATCC700294; read-out: Minimal Inhibitory Concentrations S. pyogenes ATCC 700294
*1 amine or outer side, *2 acyl side, *3 side chain or, on linkers, in order; H or OH if unused. Where a SMILES comes first, the peptide text is derived from it. Bridges are numbered along the chain shown (N, C = ends). [ ]: non-standard residue; d: D form. The star is where a group is joined. ξ: configuration not given here. Piperazine(2S-CO,4-Me) = CN1CCN[C@H](C(=O)O)C1; NH(1,3-benzodioxol-5-yl) = c1cc2c(cc1N*)OCO2; Phe(3,5-F2) = N[C@@H](Cc1cc(F)cc(F)c1)C(=O)O; NH(4-OCF3-phenyl) = FC(F)(F)Oc1ccc(N*)cc1; Morpholine(3S-CO) = O=C(O)[C@@H]1COCCN1; NH(4-Cl-2-F-phenyl) = Fc1cc(Cl)ccc1N*; Pro(4R-Me) = C[C@H]1CN[C@H](C(=O)O)C1; ξPro(4S-Me) = C[C@@H]1CNC(C(=O)O)C1; Hyp = O=C(O)[C@@H]1C[C@@H](O)CN1; aThr = C[C@H](O)[C@H](N)C(=O)O; X5 = O=C(C1COCCN1[*:1])[*:2]; NMeA = CN[C@@H](C)C(=O)O; CO = O=C([*:1])[*:2]; ξP = O=C(O)C1CCCN1
Reported MIC values for a set of molecules
measure.name: MIC

molecule	test.result
C[C@@H]1C[C@H]2C(=O)O[C@@H](C)[C@H](NC(=O)[C@H](Cc3cc(F)cc(F)c3)NC(=O)Nc3ccc(Cl)cc3F)C(=O)N3C[C@H](O)C[C@H]3C(=O)N3CCOC[C@H]3C(=O)N[C@@H](C)C(=O)N2C1 [Compound 316] ({NH(4-Cl-2-F-phenyl)-CO}-[Phe(3,5-F2)][aThr][Hyp][Morpholine(3S-CO)]A[Pro(4R-Me)]; ester 2-C)	< 0.02 µM
C[C@@H]1NC(=O)[C@H](C)N(C)C(=O)C2CCCN2C(=O)[C@@H](NC(=O)[C@H](Cc2cc(F)cc(F)c2)NC(=O)Nc2ccc(OC(F)(F)F)cc2)[C@H](C)OC(=O)C2CCCN2C1=O (stereo partly drawn) [Compound 27] ({NH(4-OCF3-phenyl)-CO}-[Phe(3,5-F2)][aThr][ξP][NMeA]A[ξP]; ester 2-C)	0.23 µM
C[C@@H]1C[C@H]2C(=O)OC[C@H](NC(=O)[C@H](Cc3cc(F)cc(F)c3)NC(=O)Nc3ccc(Cl)cc3F)C(=O)N3CCC[C@H]3C(=O)N3CCN(C)C[C@H]3C(=O)N[C@@H](C)C(=O)N2C1 [Compound 330] ({NH(4-Cl-2-F-phenyl)-CO}-[Phe(3,5-F2)]SP[Piperazine(2S-CO,4-Me)]A[Pro(4R-Me)]; ester 2-C)	0.078 µM
C[C@@H]1C[C@H]2C(=O)OC[C@H](NC(=O)[C@H](Cc3cc(F)cc(F)c3)NC(=O)Nc3ccc4c(c3)OCO4)C(=O)N3C[C@H](O)C[C@H]3C(=O)N3CCOC[C@H]3C(=O)N[C@@H](C)C(=O)N2C1 [Compound 318] ({NH(1,3-benzodioxol-5-yl)-CO}-[Phe(3,5-F2)]S[Hyp][Morpholine(3S-CO)]A[Pro(4R-Me)]; ester 2-C)	0.625 µM
C[C@H]1CC2C(=O)O[C@@H](C)[C@H](NC(=O)[C@H](Cc3cc(F)cc(F)c3)NC(=O)Nc3ccc(OC(F)(F)F)cc3)C(=O)N3CCCC3C(=O)N3CCOCC3C(=O)N[C@@H](C)C(=O)N2C1 (stereo partly drawn) [Compound 34] ({NH(4-OCF3-phenyl)-CO}-[Phe(3,5-F2)][aThr][ξP][X5]A[ξPro(4S-Me)]; ester 2-C)	0.1 µM
C[C@@H]1C[C@H]2C(=O)O[C@@H](C)[C@H](NC(=O)[C@H](Cc3cc(F)cc(F)c3)NC(=O)Nc3ccc4c(c3)OCO4)C(=O)N3CCC[C@H]3C(=O)N3CCOC[C@H]3C(=O)N[C@@H](C)C(=O)N2C1 [Compound 199] ({NH(1,3-benzodioxol-5-yl)-CO}-[Phe(3,5-F2)][aThr]P[Morpholine(3S-CO)]A[Pro(4R-Me)]; ester 2-C)	0.039 µM
